Target: KRAS-G12C/SOS1 (Homo sapiens)
Construct: purchased Cisbio 63ADK000CB16PEG
Assay: Blocking the binding of KRAS G12C protein to SOS1 (Cisbio KRAS-G12C/SOS1 binding assay kit, TR-FRET)
Conditions: Tag1-SOS1 and Tag2-KRAS-G12C, TR-FRET 665/620; read-out: IC50 (nM) Inhibition of KRAS-G12C/SOS1 binding
endpoint_name: IC50 (nM)
Only the number, expressed in nM, is required.

Q: For the compound COc1cc2nc(C)nc(N[C@H](C)c3cccc(C#N)c3C)c2cc1N1CCC2(CC1)CNC2 [Compound 16c] , report IC50.
Ans: 20.3

---

Documented IC50 across a set of compounds
Target: KRAS-G12C/SOS1 (Homo sapiens, UniProt Q07889)
Construct: purchased Cisbio 63ADK000CB16PEG
Sequence (Q07889 1-1333): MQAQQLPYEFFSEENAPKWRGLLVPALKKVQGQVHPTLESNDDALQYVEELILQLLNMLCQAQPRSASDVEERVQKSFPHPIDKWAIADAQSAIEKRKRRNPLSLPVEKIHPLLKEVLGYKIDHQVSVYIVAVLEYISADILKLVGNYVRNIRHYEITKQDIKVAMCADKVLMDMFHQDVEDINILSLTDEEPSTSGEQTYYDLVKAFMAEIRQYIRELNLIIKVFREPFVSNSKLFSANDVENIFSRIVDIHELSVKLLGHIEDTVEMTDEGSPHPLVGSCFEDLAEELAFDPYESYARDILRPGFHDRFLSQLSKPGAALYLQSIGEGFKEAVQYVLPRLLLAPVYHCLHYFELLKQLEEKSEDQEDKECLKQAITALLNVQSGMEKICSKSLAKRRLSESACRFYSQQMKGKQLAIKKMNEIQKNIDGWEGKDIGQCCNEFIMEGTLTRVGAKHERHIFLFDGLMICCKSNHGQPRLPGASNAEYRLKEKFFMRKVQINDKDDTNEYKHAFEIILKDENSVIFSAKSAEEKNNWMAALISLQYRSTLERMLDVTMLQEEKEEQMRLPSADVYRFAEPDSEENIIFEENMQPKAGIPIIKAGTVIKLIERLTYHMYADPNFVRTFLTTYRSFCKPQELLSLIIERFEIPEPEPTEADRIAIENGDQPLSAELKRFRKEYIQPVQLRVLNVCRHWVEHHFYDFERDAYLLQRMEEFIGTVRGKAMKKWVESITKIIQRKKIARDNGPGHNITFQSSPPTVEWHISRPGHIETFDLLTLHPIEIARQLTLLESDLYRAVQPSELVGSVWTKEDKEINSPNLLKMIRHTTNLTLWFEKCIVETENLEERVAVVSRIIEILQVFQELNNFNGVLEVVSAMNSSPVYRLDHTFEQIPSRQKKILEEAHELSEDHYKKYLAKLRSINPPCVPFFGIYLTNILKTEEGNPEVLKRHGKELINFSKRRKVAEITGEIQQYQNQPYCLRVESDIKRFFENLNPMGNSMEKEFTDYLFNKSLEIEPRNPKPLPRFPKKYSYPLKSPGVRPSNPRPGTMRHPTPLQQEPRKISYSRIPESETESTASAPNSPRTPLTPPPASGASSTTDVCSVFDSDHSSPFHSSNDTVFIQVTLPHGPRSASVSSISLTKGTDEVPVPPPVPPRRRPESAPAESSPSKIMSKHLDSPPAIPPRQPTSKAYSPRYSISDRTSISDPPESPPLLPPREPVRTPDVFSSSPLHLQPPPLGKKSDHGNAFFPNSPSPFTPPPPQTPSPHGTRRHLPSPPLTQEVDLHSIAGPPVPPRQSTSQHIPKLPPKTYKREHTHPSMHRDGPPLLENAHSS
Experiment: Blocking the binding of KRAS G12C protein to SOS1 (Cisbio KRAS-G12C/SOS1 binding assay kit, TR-FRET)
Conditions: Tag1-SOS1 and Tag2-KRAS-G12C, TR-FRET 665/620; read-out: IC50 (nM) Inhibition of KRAS-G12C/SOS1 binding
Number in nM, nothing else.

• COc1cc2nc(C)nc(N[C@H](C)c3cccc(C#N)c3C)c2cc1N1CCC2(CC1)COC2 [Compound 5] = 28
• COc1cc2nc(C)nc(N[C@H](C)c3cccc(C#N)c3C)c2cc1N1CCOCC1 [Compound 1] = 26.2
• COc1cc2nc(C)nc(N[C@H](C)c3cccc(C#N)c3C)c2cc1N1CCC(N2CCOCC2)CC1 [Compound 6] = 1.1

Q: Fetch value of IC50 on KRAS-G12C/SOS1 (Homo sapiens, UniProt Q07889) for COc1cc2nc(C)nc(N[C@H](C)c3cccc(C#N)c3C)c2cc1N1CCC(C)(O)CC1 [Compound 11] .
Ans: 39.5

Q: Report the value of IC50 obtained on KRAS-G12C/SOS1 (Homo sapiens, UniProt Q07889) for COc1cc2nc(C)nc(N[C@H](C)c3cccc(C#N)c3C)c2cc1N1CCC2(CCN(C)C2=O)CC1 [Compound 7] .
Ans: 35.7

Q: GET IC50 where system = KRAS-G12C/SOS1 (Homo sapiens, UniProt Q07889) and item = COc1cc2nc(C)nc(N[C@H](C)c3cccc(C#N)c3C)c2cc1N1CCN(C)CC1 [Compound 10]
Ans: 36.7

Q: State IC50 (KRAS-G12C/SOS1 (Homo sapiens, UniProt Q07889)) of COc1cc2nc(C)nc(N[C@H](C)c3cccc(C#N)c3C)c2cc1N1CC2COCC2C1 (some centres unmarked) [Compound 9] .
Ans: 53.7

Q: Look up and report IC50, with KRAS-G12C/SOS1 (Homo sapiens, UniProt Q07889) as system, for COc1cc2nc(C)nc(N[C@H](C)c3cccc(C#N)c3C)c2cc1N1CCC(C#N)CC1 [Compound 8]
Ans: 62

---

Test: Pharmacokinetic evaluation in SD rats
Format: in vivo
Conditions: male, rat, plasma, Oral 10 mg/kg, read-out: Half-life T1/2 (converted)
endpoint_name: half-life (h)
Numeric only. Scale: h

Q: Give a short answer stating reported half-life for COc1cc2nc(C)nc(N[C@H](C)c3cccc(C#N)c3C)c2cc1N1CCC(C)(O)CC1 .
Ans: 2.41

---

Molecular target: KRAS-G12C/SOS1 (Homo sapiens, UniProt Q07889)
Construct: purchased Cisbio 63ADK000CB16PEG
Test: Blocking the binding of KRAS G12C protein to SOS1 (Cisbio KRAS-G12C/SOS1 binding assay kit, TR-FRET)
Details: Tag1-SOS1 and Tag2-KRAS-G12C, TR-FRET 665/620; read-out: IC50 (nM) Inhibition of KRAS-G12C/SOS1 binding
Source text: The following method was used to determine the abilities of compounds of the invention to block the interaction of SOS1 with the KRAS G12C protein in vitro. KRAS-G12C/SOS1 BINDING ASSAY KITS (Art. No. 63ADK000CB16PEG) from Cisbio was used in this method. Please refer to the kit instruction for detailed experimental operations. […]
endpoint_name: IC50 (nM)
Give the number; nM is assumed, so skip it.

Look over these answered cases.
- COc1cc2nc(C)nc(N[C@H](C)c3cccc(C#N)c3C)c2cc1N1CCC2(CC1)CN(S(C)(=O)=O)C2: 54.3
- COc1cc2nc(C)nc(N[C@H](C)c3cccc(C#N)c3C)c2cc1N1CCC2(CC1)CN(C(C)=O)C2: 22.3
- COc1cc2nc(C)nc(N[C@H](C)c3cccc(C#N)c3C)c2cc1N1CCC(N2CCN(C)CC2)CC1: 31.7
- COc1cc2nc(C)nc(N[C@H](C)c3cccc(C#N)c3C)c2cc1N1CC(C#N)C1: 88.4
- COc1cc2nc(C)nc(N[C@H](C)c3cccc(C#N)c3C)c2cc1N1CCC(N2CCCC2=O)CC1: 63.2
- COc1cc2nc(C)nc(N[C@H](C)c3cccc(C#N)c3C)c2cc1N1CCN(C(C)=O)CC1: 20.7

Please find the next compound below.
Q: Look up IC50 of COc1cc2nc(C)nc(N[C@H](C)c3cccc(C#N)c3C)c2cc1N1CCC2(CCOCC2)CC1 and report it.
Ans: 65.2
